Subject of test: β3Gal-T5 (Homo sapiens, UniProt Q9Y2C3, M85T)
Construct: designed to exclude the hydrophobic transmembrane segment and to encode amino acid residues 25-310; secretion signal of vector pAcGP67B (gp67); made in house; host or cells: baculovirus; Sf9 cells (media) and High Five cells (serum-free medium, partially purified)
Method: Galactosyltransferase assay, partially purified secreted recombinant β3Gal-T5, saccharide acceptors
Assay type: biochemical
Condition details: acceptor 1 mM
Description: PCR product was cloned into the BamHI site of pAcGP67B (Pharmingen). […] This PCR product was cloned into the BamHI site of pVL1193 (Pharmingen). Both soluble and full length constructs were fully sequenced to confirm fidelity. […] The kinetic properties were determined with partially purified, secreted forms of the enzymes. […] Reaction products were quantified by Dowex-1 chromatography. […] The transfer of Gal was evaluated after acid precipitation by filtration through Whatman GF/C glass fibre filters. […]
Measured parameter: β3Gal-T5 activity, substrate concentration 1 mM (nmol/min/mL)
Give your result in nmol/min/mL as a bare value.

Task item: Retrieve β3Gal-T5 activity, substrate concentration 1 mM measured for CC(=O)N[C@@H]1[C@@H](O)[C@H](O)[C@@H](CO)O[C@H]1Sc1ccc([N+](=O)[O-])cc1 and print it.
Reply: 1.1

Task item: Retrieve β3Gal-T5 activity, substrate concentration 1 mM measured for O=[N+]([O-])c1ccccc1O[C@@H]1O[C@H](CO)[C@H](O)[C@H](O)[C@H]1O and print it.
Reply: 0.0

Task item: Retrieve β3Gal-T5 activity, substrate concentration 1 mM measured for CC(=O)NC1C(OC2C(OCC3OC(O)C(O)C(OC4OC(CO)C(O)C(O)C4OC4OC(CO)C(O)C(O)C4NC(C)=O)C3O)OC(CO)C(O)C2O)OC(CO)C(O)C1O (centres unmarked) and print it.
Reply: 0.0

Task item: Retrieve β3Gal-T5 activity, substrate concentration 1 mM measured for CC(=O)N[C@@H]1[C@@H](O)[C@H](O)[C@@H](CO)O[C@@H]1O and print it.
Reply: 0.5

Task item: Retrieve β3Gal-T5 activity, substrate concentration 1 mM measured for CC(=O)N[C@H]1[C@H](Oc2ccc([N+](=O)[O-])cc2)O[C@H](CO)[C@@H](O)[C@@H]1O and print it.
Reply: 2.1

Task item: Retrieve β3Gal-T5 activity, substrate concentration 1 mM measured for CC(=O)N[C@H]1[C@H](OCc2ccccc2)O[C@H](CO)[C@@H](O)[C@@H]1O and print it.
Reply: 1.5

Task item: Retrieve β3Gal-T5 activity, substrate concentration 1 mM measured for O=[N+]([O-])c1ccccc1O[C@H]1O[C@H](CO)[C@H](O)[C@H](O)[C@H]1O and print it.
Reply: 0.0

Task item: Retrieve β3Gal-T5 activity, substrate concentration 1 mM measured for CC(=O)N[C@H]1[C@H](Oc2ccc3c(C)cc(=O)oc3c2)O[C@H](CO)[C@H](O)[C@@H]1O and print it.
Reply: 0.0

Task item: Retrieve β3Gal-T5 activity, substrate concentration 1 mM measured for COC1OC(COC2OC(CO)C(O)C(O)C2NC(C)=O)C(O)C(O)C1O (centres unmarked) and print it.
Reply: 4.0

Task item: Retrieve β3Gal-T5 activity, substrate concentration 1 mM measured for Cc1cc(=O)oc2cc(O[C@@H]3O[C@H](CO)[C@@H](O)[C@H](O)[C@H]3O)ccc12 and print it.
Reply: 0.0

###

Subject of test: β3Gal-T5 (Homo sapiens, UniProt Q9Y2C3, M85T)
Construct: designed to exclude the hydrophobic transmembrane segment and to encode amino acid residues 25-310; secretion signal of vector pAcGP67B (gp67); made in house; host or cells: baculovirus; Sf9 cells (media) and High Five cells (serum-free medium, partially purified)
Sequence (Q9Y2C3 25-310 M85T): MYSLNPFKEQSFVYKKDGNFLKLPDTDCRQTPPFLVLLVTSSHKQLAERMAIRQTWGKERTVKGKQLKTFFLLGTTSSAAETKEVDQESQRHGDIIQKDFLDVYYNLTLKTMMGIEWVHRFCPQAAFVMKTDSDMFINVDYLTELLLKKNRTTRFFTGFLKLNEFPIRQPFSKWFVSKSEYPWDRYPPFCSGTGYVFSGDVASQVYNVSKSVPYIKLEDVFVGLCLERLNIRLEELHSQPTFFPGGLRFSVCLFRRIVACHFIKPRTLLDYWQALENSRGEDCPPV
Method: Galactosyltransferase assay, partially purified secreted recombinant β3Gal-T5, saccharide acceptors
Assay type: biochemical
Condition details: acceptor 5 mM
Measured parameter: β3Gal-T5 activity, substrate concentration 5 mM (nmol/min/mL)
Give your result in nmol/min/mL as a bare value.

Task item: Retrieve β3Gal-T5 activity, substrate concentration 5 mM measured for CC(=O)N[C@@H]1[C@@H](O)[C@H](O)[C@@H](CO)O[C@@H]1O and print it.
Reply: 1.2

Next:
Task item: Retrieve β3Gal-T5 activity, substrate concentration 5 mM measured for Cc1cc(=O)oc2cc(O[C@@H]3O[C@H](CO)[C@@H](O)[C@H](O)[C@H]3O)ccc12 and print it.
Reply: 0.0

Task item: Retrieve β3Gal-T5 activity, substrate concentration 5 mM measured for CC(=O)N[C@H]1[C@@H](OCc2ccccc2)O[C@H](CO)[C@H](O)[C@@H]1O and print it.
Reply: 0.0

Task item: Retrieve β3Gal-T5 activity, substrate concentration 5 mM measured for O=[N+]([O-])c1ccccc1O[C@@H]1O[C@H](CO)[C@H](O)[C@H](O)[C@H]1O and print it.
Reply: 0.0

Task item: Retrieve β3Gal-T5 activity, substrate concentration 5 mM measured for Cc1cc(=O)oc2cc(O[C@@H]3OC[C@@H](O[C@@H]4O[C@H](CO)[C@H](O)[C@H](O)[C@H]4O)[C@H](O)[C@H]3O)ccc12 and print it.
Reply: 0.0

Task item: Retrieve β3Gal-T5 activity, substrate concentration 5 mM measured for CC(=O)N[C@H]1[C@@H](OCc2ccccc2)O[C@H](CO)[C@@H](O)[C@@H]1O and print it.
Reply: 0.0

Task item: Retrieve β3Gal-T5 activity, substrate concentration 5 mM measured for CC(=O)N[C@@H]1[C@@H](O)[C@H](O)[C@@H](CO)O[C@H]1Sc1ccc([N+](=O)[O-])cc1 and print it.
Reply: 3.4

###

Subject of test: β3Gal-T5 (Homo sapiens, UniProt Q9Y2C3, M85T)
Construct: designed to exclude the hydrophobic transmembrane segment and to encode amino acid residues 25-310; secretion signal of vector pAcGP67B (gp67); made in house; host or cells: baculovirus; Sf9 cells (media) and High Five cells (serum-free medium, partially purified)
Method: Galactosyltransferase assay, partially purified secreted recombinant β3Gal-T5, saccharide acceptors
Type: biochemical
Condition details: acceptor 5 mM
Procedure: PCR product was cloned into the BamHI site of pAcGP67B (Pharmingen). […] This PCR product was cloned into the BamHI site of pVL1193 (Pharmingen). Both soluble and full length constructs were fully sequenced to confirm fidelity. […] The kinetic properties were determined with partially purified, secreted forms of the enzymes. […] Reaction products were quantified by Dowex-1 chromatography. […] The transfer of Gal was evaluated after acid precipitation by filtration through Whatman GF/C glass fibre filters. […]
Measured parameter: β3Gal-T5 activity, substrate concentration 5 mM (nmol/min/mL)
Give your result in nmol/min/mL as a bare value.

Task item: Retrieve β3Gal-T5 activity, substrate concentration 5 mM measured for CC(=O)NC1C(OC2C(O)OC(CO)C(O)C2O)OC(CO)C(O)C1O (stereo not shown) and print it.
Reply: 3.0

Next:
Task item: Retrieve β3Gal-T5 activity, substrate concentration 5 mM measured for CC(=O)N[C@H]1[C@H](Oc2ccc3c(C)cc(=O)oc3c2)O[C@H](CO)[C@H](O)[C@@H]1O and print it.
Reply: 0.0

Task item: Retrieve β3Gal-T5 activity, substrate concentration 5 mM measured for CC(=O)N[C@H]1[C@H](OCc2ccccc2)O[C@H](CO)[C@@H](O)[C@@H]1O and print it.
Reply: 3.9

Task item: Retrieve β3Gal-T5 activity, substrate concentration 5 mM measured for CO[C@@H]1O[C@H](CO)[C@H](O)[C@H](O[C@@H]2O[C@H](CO)[C@@H](O)[C@H](O)[C@H]2NC(C)=O)[C@H]1O and print it.
Reply: 87.4

###

Subject of test: β3Gal-T5 (Homo sapiens, UniProt Q9Y2C3, M85T)
Construct: designed to exclude the hydrophobic transmembrane segment and to encode amino acid residues 25-310; secretion signal of vector pAcGP67B (gp67); made in house; host or cells: baculovirus; Sf9 cells (media) and High Five cells (serum-free medium, partially purified)
Sequence (Q9Y2C3 25-310 M85T): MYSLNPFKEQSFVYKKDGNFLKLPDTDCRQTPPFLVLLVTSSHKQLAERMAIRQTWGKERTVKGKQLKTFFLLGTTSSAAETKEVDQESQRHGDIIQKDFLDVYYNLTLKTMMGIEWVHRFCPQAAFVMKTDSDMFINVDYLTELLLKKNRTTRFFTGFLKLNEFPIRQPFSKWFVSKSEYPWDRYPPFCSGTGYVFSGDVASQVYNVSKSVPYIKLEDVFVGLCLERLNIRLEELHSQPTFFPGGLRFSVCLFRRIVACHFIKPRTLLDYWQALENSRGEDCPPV
Method: Galactosyltransferase assay, partially purified secreted recombinant β3Gal-T5, saccharide acceptors
Assay type: biochemical
Condition details: acceptor 1 mM
Items are presented alongside their recorded β3Gal-T5 activity, substrate concentration 1 mM.
Give your result in nmol/min/mL as a bare value.

Use the examples below as a reference point.
Task item: Retrieve β3Gal-T5 activity, substrate concentration 1 mM measured for Cc1cc(=O)oc2cc(O[C@@H]3OC[C@@H](O[C@@H]4O[C@H](CO)[C@H](O)[C@H](O)[C@H]4O)[C@H](O)[C@H]3O)ccc12 and print it.
Reply: 0.0

Task item: Retrieve β3Gal-T5 activity, substrate concentration 1 mM measured for CC(=O)N[C@H]1[C@@H](OCc2ccccc2)O[C@H](CO)[C@H](O)[C@@H]1O and print it.
Reply: 0.0

Task item: Retrieve β3Gal-T5 activity, substrate concentration 1 mM measured for CC(=O)N[C@H]1[C@H](Oc2ccc3c(C)cc(=O)oc3c2)O[C@H](CO)[C@@H](O)[C@@H]1O and print it.
Reply: 2.6

Task item: Retrieve β3Gal-T5 activity, substrate concentration 1 mM measured for CC(=O)NC1C(OC2C(O)C(CO)OC(Oc3ccc([N+](=O)[O-])cc3)C2NC(C)=O)OC(CO)C(O)C1O (stereo not shown) and print it.
Reply: 10.8

Task item: Retrieve β3Gal-T5 activity, substrate concentration 1 mM measured for CC(=O)NC1C(OC2C(O)OC(CO)C(O)C2O)OC(CO)C(O)C1O (stereo not shown) and print it.
Reply: 0.0

Task item: Retrieve β3Gal-T5 activity, substrate concentration 1 mM measured for CO[C@@H]1O[C@H](CO)[C@H](O)[C@H](O[C@@H]2O[C@H](CO)[C@@H](O)[C@H](O)[C@H]2NC(C)=O)[C@H]1O and print it.
Reply: 27.4

From here, focus on the item given below.
Task item: Retrieve β3Gal-T5 activity, substrate concentration 1 mM measured for CC(=O)N[C@H]1[C@@H](OCc2ccccc2)O[C@H](CO)[C@@H](O)[C@@H]1O and print it.
Reply: 0.0
